Hello, the source for this data is paper PMC12543283, in case you need it.

Ends that are not written are not given here.
Measured Cell viability, BEAS-2B, Data1 on human bronchial epithelial cells (BEAS-2B) follows.
I only need the number, thanks.

Worked cases, Cell viability, BEAS-2B, Data1 given:
EQGEQN [TaPep15]    105.68
LGDDLVK [TaPep19]    111.27
EFPEQN [TaPep17]    112.36
SNDPVA [TaPep71]    100.40
TQEVVN [TaPep25]    118.34

## Input Give human bronchial epithelial cells (BEAS-2B) Cell viability, BEAS-2B, Data1 for the following substance: DQKVLA [TaPep3]
## Output 109.77

## Input Retrieve Cell viability, BEAS-2B, Data1 on human bronchial epithelial cells (BEAS-2B); query AEDNSL [TaPep43]
## Output 119.14

## Input Report its Cell viability, BEAS-2B, Data1 with human bronchial epithelial cells (BEAS-2B) as the test system: DQEPVE [TaPep44]
## Output 108.18

## Input Provide the reported Cell viability, BEAS-2B, Data1 (system: human bronchial epithelial cells (BEAS-2B)) for VPDELN [TaPep23]
## Output 109.87

====

Ends that are not written are not given here.
The substances below have reported Cell viability, HUVEC, Data1 for human umbilical vein endothelial cells (HUVEC).

Please review the following examples before continuing.
SLEYLP [TaPep35]    100.75
SVLEFS [TaPep52]    102.10
DQKVLA [TaPep3]    114.40
HIDELDE [TaPep22]    90.69

## Input Report the value of Cell viability, HUVEC, Data1 obtained on human umbilical vein endothelial cells (HUVEC) for STGTIR [TaPep51] .
## Output 102.66

## Input Write down the reported Cell viability, HUVEC, Data1 (system: human umbilical vein endothelial cells (HUVEC)) of DAELDK [TaPep34]
## Output 90.61

## Input Enter recorded Cell viability, HUVEC, Data1 with human umbilical vein endothelial cells (HUVEC) for EQPLQA [TaPep21] here.
## Output 96.59

## Input Answer briefly: Cell viability, HUVEC, Data1 recorded on human umbilical vein endothelial cells (HUVEC) for PPLENT [TaPep39]
## Output 101.22

## Input Give Cell viability, HUVEC, Data1 only, for NGDDEEG [TaPep7] , using human umbilical vein endothelial cells (HUVEC) data.
## Output 113.68

====

test.summary: Electronic tongue analysis (Taste-Sensing System SA 402B)
Parameters: unit not given here
test.settings: sensor C00, peptide 0.1 mg/mL, reference solution 30 mM KCl + 0.3 mM tartaric acid as baseline, detection threshold 0, room temperature, four replicates, first measurement excluded
Ends that are not written are not given here.
observation.type: Bitter
Reply briefly: the number, and no unit.

LQPSLEH [TaPep59]    7.83
PTELESD [TaPep41]    7.34
NGDDEEG [TaPep7]    7.41
HGGDDLG [TaPep28]    7.58

## Input Kindly indicate its recorded Bitter. Item: VPDELN [TaPep23]
## Output 7.18

## Input Please report Bitter for the following substance: YQAENKH [TaPep14]
## Output 7.83

## Input Give recorded Bitter. TQEVVN [TaPep25]
## Output 7.01

## Input Output Bitter of YAGNAP [TaPep10]
## Output 6.97

## Input Report measured Bitter; entry is SLEYEFK [TaPep38]
## Output 7.67

## Input Kindly indicate its recorded Bitter. Item: LQPDAGK [TaPep6]
## Output 7.90

## Input Assign Bitter to the following record: EPDDPDD [TaPep27]
## Output 7.42

## Input Give the measured Bitter for KNDESVD [TaPep48]
## Output 7.92

## Input # return recorded Bitter for input EPKVLV [TaPep54]
## Output 7.63

====

Record type: Cell viability, HPNE, Data3 measurement. Applies to: human pancreatic ductal epithelial cells (HPNE)
Ends that are not written are not given here.
Would you mind answering with just the numeric figure?

## Input Given the substance NNDDEES [TaPep50] , write its reported Cell viability, HPNE, Data3.
## Output 81.36

## Input Give a short answer stating reported Cell viability, HPNE, Data3 for DFKEELPK [TaPep42] .
## Output 107.32

## Input Determine from records and report Cell viability, HPNE, Data3 for PTELESD [TaPep41]
## Output 87.75

====

test.summary: Electronic tongue analysis (Taste-Sensing System SA 402B)
Design: unit not given here
test.settings: sensor CA0, peptide 1 mg/mL, reference solution 30 mM KCl + 0.3 mM tartaric acid as baseline, detection threshold -13, room temperature, four replicates, first measurement excluded
Ends that are not written are not given here.
Sour vs 10: less than gives Satisfied; not less than gives Not satisfied.

FTEELE [TaPep32]    Not satisfied
EEVPITD [TaPep46]    Not satisfied
DQEPVE [TaPep44]    Not satisfied
EQPLQA [TaPep21]    Not satisfied
HGGDDLG [TaPep28]    Not satisfied
DFKEELPK [TaPep42]    Not satisfied
KADGNR [TaPep4]    Not satisfied
DQKVLA [TaPep3]    Not satisfied

## Input Please check: Sour for TAEQVA [TaPep33] , strictly under 10 or not?
## Output Not satisfied

## Input Would you kindly verify if Sour of LGDDLVK [TaPep19] is strictly less than 10?
## Output Not satisfied

## Input A record lists SVLEFS [TaPep52] . Is its Sour below 10?
## Output Satisfied

## Input # check: Sour < 10 for HIDELDE [TaPep22]
## Output Satisfied

## Input Say whether its Sour is strictly beneath 10. Entry: PPLENT [TaPep39]
## Output Not satisfied

## Input Does this substance meet the criterion Sour < 10? VPDELN [TaPep23]
## Output Not satisfied

====

Test system: human embryonic kidney cells (HEK293T)
Ends that are not written are not given here.
Reported Cell viability, HEK293T, Data2 values are given for each entry in this list.
Hey, just send me the number, nothing else.

Check out these entries, answers already filled in.
HGGDDLG [TaPep28]    99.75
STGTIR [TaPep51]    99.65

## Input Return the recorded Cell viability, HEK293T, Data2 value; entry: DAELDK [TaPep34]
## Output 102.49

## Input Output measured Cell viability, HEK293T, Data2 for this item: LQDVVE [TaPep24]
## Output 97.85

## Input Report measured Cell viability, HEK293T, Data2; entry is PTELESD [TaPep41]
## Output 110.54

## Input Please supply the value of reported Cell viability, HEK293T, Data2 for the item APEELDA [TaPep36]
## Output 102.11

## Input Give Cell viability, HEK293T, Data2 for the following substance: AEDNSL [TaPep43]
## Output 102.11

## Input Fill in reported Cell viability, HEK293T, Data2 for this entry: EEVPITD [TaPep46]
## Output 100.60

## Input Dear colleague, please send me the reported Cell viability, HEK293T, Data2 for SVLEFS [TaPep52] when you can.
## Output 97.95

====

test.summary: Electronic tongue analysis (Taste-Sensing System SA 402B)
Set-up: unit not given here
test.settings: sensor C00, peptide 1 mg/mL, reference solution 30 mM KCl + 0.3 mM tartaric acid as baseline, detection threshold 0, room temperature, four replicates, first measurement excluded
Ends that are not written are not given here.
Listed here: items and their measured Bitter.
Response field accepts a number only; no unit should be typed.

Worked examples follow.
KNDESVD [TaPep48]    4.06
HIDELDE [TaPep22]    3.37
AQDDLP [TaPep20]    3.35

Let's switch to this substance now.
## Input Input SLEYLP [TaPep35] , output reported Bitter.
## Output 2.77

====

This section lists Average cell viability, HPNE readings for human pancreatic ductal epithelial cells (HPNE).
Ends that are not written are not given here.
Form: value (number only, do not type unit).

Solved cases below.
SLEYLP [TaPep35]    109.88
KADGNR [TaPep4]    97.84
AQSSLS [TaPep40]    106.99

Kindly consider the entry below.
## Input State Average cell viability, HPNE (human pancreatic ductal epithelial cells (HPNE)) of DFKEELPK [TaPep42] .
## Output 106.29

====

Ends that are not written are not given here.
Cell viability, HUVEC, Data1 values recorded for human umbilical vein endothelial cells (HUVEC)
Simply state the number, no unit and no words.

LQDVVE [TaPep24]    91.48
IAVPHEP [TaPep47]    101.62
EQGEQN [TaPep15]    103.30
EFPEQN [TaPep17]    94.76
NNDDEES [TaPep50]    101.94

## Input Look up and report Cell viability, HUVEC, Data1, with human umbilical vein endothelial cells (HUVEC) as system, for LQPDAGK [TaPep6]
## Output 91.96

## Input Report measured Cell viability, HUVEC, Data1 on human umbilical vein endothelial cells (HUVEC); entry: LWGPVT [TaPep72]
## Output 107.29

## Input Answer with Cell viability, HUVEC, Data1 of DFKEELPK [TaPep42] measured for human umbilical vein endothelial cells (HUVEC).
## Output 109.77

## Input # lookup: human umbilical vein endothelial cells (HUVEC) Cell viability, HUVEC, Data1, key = EPKVLV [TaPep54]
## Output 113.84
